All values here come from ChEMBL document CHEMBL5321278.

test system: RKO; experiment: Cytotoxicity against human RKO cells assessed as reduction in cell viability incubated for 72 hrs by CCK-8 assay; assay type: functional, cell-based
readout.name: pIC50
pIC50 is defined as minus the log10 of a concentration measured in mol/L.

Recorded pIC50 for C/C=C/[C@@H]1O[C@H]([C@@H](N)/C=C/C=C(\C)C[C@@H](C)/C=C(C)\C=C\[C@H](O)C[C@H](N)CC(=O)OC)C[C@H](O)[C@@H]1C on RKO was 6.52

Item C/C=C/[C@@H]1O[C@H]([C@H](N)/C=C/C=C(\C)C[C@@H](C)/C=C(C)\C=C\[C@H](O)C[C@H](N)CC(=O)OC)C[C@H](O)[C@@H]1C was tested on RKO; the reported pIC50 is 6.72

----------
Please provide measured pIC50 for the entries that follow.
target: UniProtKB O14980; assay: Inhibition of CRM1-mediated nuclear export in human HeLa cells expressing mCherry-tagged NES reporter incubated for 3 hrs by confocal microscopy analysis; type: cell-based
By convention, pIC50 is the negative base-10 log of a molar concentration.

Entry C/C=C/[C@@H]1O[C@H]([C@@H](N)/C=C/C=C(\C)C[C@@H](C)/C=C(C)\C=C\[C@H](O)C[C@H](N)CC(=O)OC)C[C@H](O)[C@@H]1C : pIC50 on UniProtKB O14980 = 6.47

Short answer on UniProtKB O14980 for C/C=C/[C@@H]1O[C@H]([C@H](N)/C=C/C=C(\C)C[C@@H](C)/C=C(C)\C=C\[C@H](O)C[C@H](N)CC(=O)OC)C[C@H](O)[C@@H]1C , pIC50: 6.55

----------
target: Exportin-1 (Homo sapiens, UniProt O14980); test: Inhibition of CRM1 nuclear export in human HeLa cells assessed as CRM1 depletion measured after 6 hrs; assay type: cell-based
Sequence (O14980 whole entry): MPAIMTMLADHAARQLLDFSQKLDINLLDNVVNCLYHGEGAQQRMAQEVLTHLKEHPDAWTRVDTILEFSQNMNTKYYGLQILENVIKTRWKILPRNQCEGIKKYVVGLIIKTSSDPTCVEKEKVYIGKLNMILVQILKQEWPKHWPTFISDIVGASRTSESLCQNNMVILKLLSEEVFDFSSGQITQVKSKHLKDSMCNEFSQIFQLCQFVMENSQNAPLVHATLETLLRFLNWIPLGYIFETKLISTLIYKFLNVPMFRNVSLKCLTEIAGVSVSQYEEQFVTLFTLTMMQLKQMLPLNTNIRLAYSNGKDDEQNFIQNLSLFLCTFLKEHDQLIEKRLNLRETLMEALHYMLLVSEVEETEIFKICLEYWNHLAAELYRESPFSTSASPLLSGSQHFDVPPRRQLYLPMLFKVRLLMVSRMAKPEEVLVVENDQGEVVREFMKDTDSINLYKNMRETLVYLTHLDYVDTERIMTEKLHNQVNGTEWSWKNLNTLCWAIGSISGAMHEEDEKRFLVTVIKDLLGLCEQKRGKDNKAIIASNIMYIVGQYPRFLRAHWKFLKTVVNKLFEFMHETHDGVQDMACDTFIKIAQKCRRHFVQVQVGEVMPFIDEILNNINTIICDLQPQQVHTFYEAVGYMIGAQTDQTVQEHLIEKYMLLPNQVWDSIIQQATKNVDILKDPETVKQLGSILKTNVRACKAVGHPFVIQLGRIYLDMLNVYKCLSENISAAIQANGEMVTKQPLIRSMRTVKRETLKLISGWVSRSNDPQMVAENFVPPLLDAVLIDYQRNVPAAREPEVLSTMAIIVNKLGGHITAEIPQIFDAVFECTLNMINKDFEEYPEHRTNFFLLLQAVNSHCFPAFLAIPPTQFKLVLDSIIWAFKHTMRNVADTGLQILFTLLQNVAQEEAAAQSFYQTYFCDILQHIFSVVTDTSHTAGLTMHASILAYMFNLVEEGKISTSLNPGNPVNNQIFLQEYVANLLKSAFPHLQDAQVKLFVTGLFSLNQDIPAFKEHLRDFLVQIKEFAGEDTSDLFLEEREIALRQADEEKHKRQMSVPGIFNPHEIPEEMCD
readout.name: IC50 (nM)
Lab book: enter the figure in nM, no units written.

Sample C/C=C/[C@@H]1O[C@H]([C@H](N)/C=C/C=C(\C)C[C@@H](C)/C=C(C)\C=C\[C@H](O)C[C@H](N)CC(=O)OC)C[C@H](O)[C@@H]1C ; IC50 observed: 270

IC50 reading for C/C=C/[C@@H]1O[C@H]([C@@H](N)/C=C/C=C(\C)C[C@@H](C)/C=C(C)\C=C\[C@H](O)C[C@H](N)CC(=O)OC)C[C@H](O)[C@@H]1C : 550

----------
target: Exportin-1 (Homo sapiens); experiment: Inhibition of CRM1 (unknown origin) assessed as binding of GST-tagged NES peptide
Activity calls are given as the source filed them. The rule behind the calls is not given here.
readout.name: inhibition

>  <molecule>
C/C=C/[C@@H]1O[C@H]([C@H](N)/C=C/C=C(\C)C[C@@H](C)/C=C(C)\C=C\[C@H](O)C[C@H](N)CC(=O)OC)C[C@H](O)[C@@H]1C

>  <system>
Exportin-1 (Homo sapiens)

>  <reported.result>
Active

$$$$
>  <molecule>
C/C=C/[C@@H]1O[C@H]([C@@H](N)/C=C/C=C(\C)C[C@@H](C)/C=C(C)\C=C\[C@H](O)C[C@@H](CC(=O)NCCO)NCCO)C[C@H](O)[C@@H]1C

>  <system>
Exportin-1 (Homo sapiens)

>  <reported.result>
inactive

$$$$
>  <molecule>
C/C=C/[C@@H]1O[C@H]([C@@H](N)/C=C/C=C(\C)C[C@@H](C)/C=C(C)\C=C\[C@H](O)C[C@H](N)CC(N)=O)C[C@H](O)[C@@H]1C

>  <system>
Exportin-1 (Homo sapiens)

>  <reported.result>
inactive

$$$$
>  <molecule>
C/C=C/[C@@H]1O[C@H]([C@@H](N)/C=C/C=C(\C)C[C@@H](C)/C=C(C)\C=C\[C@H](O)C[C@H](N)CC(=O)OC)C[C@H](O)[C@@H]1C

>  <system>
Exportin-1 (Homo sapiens)

>  <reported.result>
Active

$$$$
